# Test system: RPMI-8226 leukemia
# EXPERIMENT_DESCRIPTION: NCI tumour cell line growth inhibition, 48 h; in the data active = GI50 below about 0.43 µM; inactive = the rest
One label from this list, please: T (active), F (inactive)

Record excerpt, results attached:
SMILES_STRING	CLASS_NAME
NCCCCCNc1noc(Cc2c[nH]c3cc(Br)ccc23)n1	F
O=C(O)c1cc2ccccc2c2c3c(ccc12)OCO3	F
CCN(CC)c1c(-c2ccccc2)n[nH]c1C(=O)OC	F
Cc1ccc(S(=O)(=O)OCC#CCOS(=O)(=O)c2ccc(C)cc2)cc1	F
CN(C)C(=O)OCc1nc2c(N3CCOCC3)nc(-c3ccccc3)nc2n1C	T
COc1cc(Cl)cc(-c2nn(-c3cccc(NC(=O)Nc4cccc(C(F)(F)F)c4)c3)cc2-c2ccncc2)c1	F
CCCCCCCCCCCCCCCCCCNCc1ccc(Cl)cc1	F
N#Cc1ccc(-c2c(-c3ncn[nH]3)sc(N3CCOCC3)c2C#N)c(F)c1	F

(Q) // outcome(item) with item = CNCC/C=C1\c2cc3c(cc2-c2c1c1cc(OC)c(OC)cc1c(=O)n2C)OCO3
(A) T

(Q) // param item: O=C(NCCc1ccccc1)Nc1ccc2cc3ccc(NC(=O)NCCc4ccccc4)cc3nc2c1 ; yields the recorded call
(A) F

(Q) Answer briefly: the call reported for Cc1cc(C(=O)Nc2n[nH]c3ccccc23)n[nH]1 in this assay.
(A) F

(Q) Hey, what did the test say about Nc1ccccc1C#C/C=C\C#CC#C/C=C\C#Cc1ccccc1N ?
(A) F

(Q) Name the outcome recorded for Cc1cc(C(=O)/C=C/c2ccc[nH]2)ccc1-n1ccc(C(F)(F)F)n1 in the assay.
(A) F

(Q) GET /call?item= COc1ccc(/C(C)=N/NC(=O)CSc2nc3ccccc3c(=O)n2CCc2ccc(S(N)(=O)=O)cc2)cc1 returns the recorded outcome of this test.
(A) F

(Q) // param item: O=C(Nn1c(-c2cccs2)nc2ccc(I)cc2c1=O)c1ccccc1 ; yields the recorded call
(A) F

(Q) # lookup: test call for Cc1cc(-c2nnc(/C=C/c3ccc4c(c3)OCO4)o2)n[nH]1
(A) F

Data origin: PubChem BioAssay (NCI)
